- SUBJECT OF TEST: T1, M Phase Phosphoprotein 8 chromodomain (UniProt Q99549 55-116)
- T1 chain: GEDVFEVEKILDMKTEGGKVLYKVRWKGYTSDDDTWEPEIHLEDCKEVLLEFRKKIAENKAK
- ASSAY COMMENT: FP
Where no end group is shown, it is not given here. [ ]: non-standard residue; d: D form. The star is where a group is joined. 5FAM = O=C1OC2(c3ccc(O)cc3Oc3cc(O)ccc32)c2ccc(C(=O)*)cc21; Lys(Me3) = C[N+](C)(C)CCCC[C@H](N)C(=O)O
READOUT: pKd
Give bare numbers, as −log10 of the molar value.

Query: pKd; subject: 5FAM-TAR[Lys(Me3)]STG (also: flanking glycines, number not given here) [FAM-TAR(Kme3)STG peptide (H3K9me3)] 4.94
